Could you please report measured % Bound, Transmitter for the items listed next?
- Tested on: sera samples (antibodies)
- Protocol: ELISA peptide-binding of maternal sera, MN strain peptides (Example 7)
- Parameters: species or system human
- Condition Context: Transmitter, n = 5
Unit % implied. Number only.

Entry HIPTRIRQGLERALL [MN-11] , system sera samples (antibodies): what % Bound, Transmitter was measured?
0

// next record LRIVFAVLSVVNRVRQGYSP [Peptide 55]
0

// next record ELDKWASLWNWFNITNWLWY [Peptide 53]
0

// next record YIKIFIMIVGGLVG [MN-17]
0

// next record HMLQLTVWGIKQLQAR [MN-15]
0

// next record DTSGRLVHGFLAIIW [MN-8]
20

// next record MN-19: gp41 peptide, amino acids 531-540, HIV strain MN, SEQ ID NO: 169 (MGAASVTLTV)
20

* * *

Could you please report measured Percent of Non-Transmitters which bound to peptide for the items listed next?
- System: maternal sera (antibodies)
- Protocol: ELISA peptide-binding of maternal sera (Example 6)
- Design: species or system human
- Condition Context: Non-Transmitters, N = 12
Unit % implied. Number only.

Which Percent of Non-Transmitters which bound to peptide value is on record for A405: gp120 peptide, amino acids 405-423, HIV strain Z3, SEQ ID NO: 130 (TGNITLPCRIKQVVRTWQG) [Peptide A405] ?
8.3

// next record WSK-1: gp120 peptide, amino acids 378-394, SEQ ID NO:115 (GGEFFYCNSTQLFNSTW)
0

// next record KQIINMWQEVGKAMYA/CTRPNNNTRKSIRIQRGPG (KQIINMWQEVGKAMYACTRPNNNTRKSIRIQRGPG) [1/SP10IIIB]
66.7

// next record BS-1: gp120 peptide, amino acids 319-329, SEQ ID NO:114 (TIGKIGNMRQA)
0

// next record A6939: gp120 peptide, amino acids 210-227, SEQ ID NO:108 (FEPIPIHYCAPAGFAILK) [Peptide A6939]
0

// next record CIVQQQNNLLRAI-EAQQHLLQLTVWGIKQL (CIVQQQNNLLRAIEAQQHLLQLTVWGIKQL) [Peptide 560]
0

// next record FSYHRLRDLLLIVTR [Peptide 132]
83

* * *

- Test system: sera samples (antibodies)
- Protocol: ELISA peptide-binding of maternal sera, MN strain peptides (Example 7)
- Parameters: species or system human
- Condition Context: Non-Transmitter, n = 5
Could you please report measured % Bound, Non-Transmitter for the items listed next?
Unit % implied. Number only.

Which % Bound, Non-Transmitter value is on record for HMLQLTVWGIKQLQAR [MN-15] ?
60

// next record LRIVFAVLSVVNRVRQGYSP [Peptide 55]
0

// next record ELDKWASLWNWFNITNWLWY [Peptide 53]
0

// next record DTSGRLVHGFLAIIW [MN-8]
80

// next record YIKIFIMIVGGLVG [MN-17]
40

// next record MN-19: gp41 peptide, amino acids 531-540, HIV strain MN, SEQ ID NO: 169 (MGAASVTLTV)
20

// next record HIPTRIRQGLERALL [MN-11]
60

* * *

- System: maternal sera (antibodies)
- Protocol: ELISA peptide-binding of maternal sera (Example 6)
- Design: species or system human
- Condition Context: Non-Transmitters, N = 12
- Protocol: A total of 86 maternal sera samples obtained from patients of the Hospital of the University of Pennsylvania during the third trimester of pregnancy were used in this study 58 (67%) were non-transmitters and 28 (33%) were transmitters. This is approximately consistent with the national average (i.e. a rate of transmission between 25-30%). […] Because of the constraints on the volume of serum available for many of these samples, not all sera were analyzed with all the peptides. […]
Could you please report measured Percent of Non-Transmitters which bound to peptide for the items listed next?
Unit % implied. Number only.

Entry 124: gp41 peptide, amino acids 646-660, SEQ ID NO:123 (IEESQNQQEKNEQEL) [Peptide 124] , system maternal sera (antibodies): what Percent of Non-Transmitters which bound to peptide was measured?
0

// next record BS-2: gp41 peptide, amino acids 625-634, HIV strain IIIB, SEQ ID NO: 176 (NMTWMEWDRE)
0

// next record NYTSLIHSLIEESQNQ [Peptide 41]
0

// next record VSLKCTDLKNDTNTN [Peptide 97]
16.7

// next record p41-20: gp41 peptide, amino acids 644-663, HIV strain IIIB, SEQ ID NO: 154 (SLIEESQNQQEKNEQELLEL)
16.7

// next record RG-1: gp41 peptide, amino acids 510-516, HIV strain IIIB, SEQ ID NO: 177 (KRAVGIG)
25

// next record 41-21: gp41 peptide, amino acids 661-683, HIV strain IIIB, SEQ ID NO: 152 (LELDKWASLWNWFNITNWLWYIK) [Peptide 41-21]
0

// next record 41-13: gp41 peptide, amino acids 616-632, HIV strain BRU, SEQ ID NO: 153 (NASWSNKSLEQIWNNMT) [Peptide 41-13]
0

// next record EGGERDRDRSIRLVN [Peptide 129]
0

// next record SSGRMIMEKGEIKNCSFNIST [Peptide 59]
0

// next record A733: gp41 peptide, amino acids 728-745, HIV strain IIIB, SEQ ID NO: 174 (DRPEGIEEEGGERDRDRS) [Peptide A733]
8.3

// next record RIQRGPGRAFVTIGK [p18p]
25

// next record CQNQQEKNEQELLEL [Peptide 649]
43.8

// next record QNNLLRAIEAQQHLLQLTVWGI [Peptide 35]
0

// next record IGALFLGFGAAGST [Peptide 117]
16.7

// next record 105: gp120 peptide, amino acids 286-300, SEQ ID NO:112 (VQLNTSVEINCTRPN) [Peptide 105]
0

// next record A581: gp41 peptide, amino acids 576-592, SEQ ID NO:120 (LQARILAVERYLKDQQL) [Peptide A581]
16.7
